test system: Endolysin (Enterobacteria phage T4), P00720 [L99A,M102H]; conditions: Tequatrovirus T4
REPORTED_ENDPOINT: ΔTm (°C)
Field: numeric (°C). Do not append units.

>>> recorded_result("Nc1cc(F)c(F)cc1Br")
0.2
>>> recorded_result("CC(CO)c1ccccc1 (stereo not drawn)")
0.1
>>> recorded_result("CC(=O)c1ccc(O)cc1")
0.5
>>> recorded_result("Brc1c[nH]cn1")
0.4
>>> recorded_result("Cc1cc(C(F)(F)F)n[nH]1")
1.9

**Q:** Annotate the compound OCCn1cccn1 with its measured ΔTm.
**A:** 0.3

**Q:** Annotate the compound C=CSc1ccccc1 with its measured ΔTm.
**A:** 1

**Q:** Annotate the compound Nc1ccc(F)cc1Cl with its measured ΔTm.
**A:** -0.3

**Q:** Annotate the compound Oc1cc(C(F)(F)F)ccn1 with its measured ΔTm.
**A:** 0.1

====

system: Endolysin (Enterobacteria phage T4), P00720 [L99A,M102H]; test: Binding affinity to Enterobacteria phage T4 lysozyme L99A/M102H double mutant expressed in Escherichia coli BL21(DE3) assessed as change in melting temperature at 0.5 mM at pH 5.4 by circular dichroism analysis; settings: Tequatrovirus T4
REPORTED_ENDPOINT: ΔTm (°C)
Field: numeric (°C). Do not append units.

Solved cases below.
>>> recorded_result("C#Cc1ccccc1N")
0.5
>>> recorded_result("Nc1ccccc1")
0.2
>>> recorded_result("Clc1n[nH]c2ncccc12")
0.1

**Q:** Annotate the compound O=Cc1cc(O)ccc1Br with its measured ΔTm.
**A:** 0.9

====

system: Endolysin (Enterobacteria phage T4), P00720 [L99A,M102H]; experiment: Binding affinity to Enterobacteria phage T4 lysozyme harboring L99A/M102H double mutant expressed in Escherichia coli BL21(DE3) assessed as change in melting temperature at 1 mM at pH 6.8 by circular dichroism analysis; conditions: Tequatrovirus T4
The following compounds are listed with their measured ΔTm values.
Field: numeric (°C). Do not append units.

>>> recorded_result("Cc1cc(C)n(CO)n1")
0.3
>>> recorded_result("O=[N+]([O-])c1ccc(O)cc1")
4.5
>>> recorded_result("c1ccncc1")
0.1
>>> recorded_result("Cc1cc(C)[nH]n1")
1.4
>>> recorded_result("Nc1ccc(F)cc1Cl")
1.3

Here is another compound to look at.
**Q:** Annotate the compound Nc1cc(F)c(F)cc1Br with its measured ΔTm.
**A:** 0.8

====

tested on: Endolysin (Enterobacteria phage T4), P00720 [L99A,M102H]; details: Tequatrovirus T4
Label scheme for ΔTm: b0 = under -0.3 °C, b1 = from -0.3 °C up to 0.4 °C, b2 = 0.4 °C and over

Would you please look over these solved cases?
>>> answer_label("CCc1cc(O)ccc1Cl")
"b0"
>>> answer_label("Nc1ncc(Cl)s1")
"b2"
>>> answer_label("N#Cc1cc(Br)ccc1O")
"b2"
>>> answer_label("Cc1cc(C)n(CO)n1")
"b0"

**Q:** Which class is correct for the following molecule? N#CNC#N
**A:** b0

**Q:** Which class is correct for the following molecule? O=[N+]([O-])c1ccc(O)cc1
**A:** b2

====

test system: Endolysin (Enterobacteria phage T4), P00720 [L99A,M102H]; conditions: Tequatrovirus T4
REPORTED_ENDPOINT: ΔTm (°C)
Field: numeric (°C). Do not append units.

Solved cases below.
>>> recorded_result("Cc1cc(C)[nH]n1")
-0.3
>>> recorded_result("CSc1ccc(F)cc1")
0.4
>>> recorded_result("OCc1cc(Cl)ccc1Cl")
-0.1
>>> recorded_result("c1ccc2oncc2c1")
0.2
>>> recorded_result("OCc1ccc(Cl)c(Cl)c1")
0.2

**Q:** Annotate the compound N#Cc1ccc([N+](=O)[O-])s1 with its measured ΔTm.
**A:** 0.2

**Q:** Annotate the compound OCc1cccc(Br)c1 with its measured ΔTm.
**A:** -0.7

**Q:** Annotate the compound FC(F)(F)c1c[nH]cn1 with its measured ΔTm.
**A:** 1

The values you see were collected from ChEMBL document CHEMBL2321727.
